Measured pEC50 of individual entries
# Tested On: mu opioid receptor (MOR) (Homo sapiens)
# Protocol Description: PathHunter β-arrestin recruitment assay, PAM mode with EC20 endomorphin-1
# Type: cell-based
# Condition Notes: β-arrestin recruitment; read-out: β-arr. EC50
pEC50: −log10 of the molar value.

Here's what some known entries look like.
{"columns": ["Molecule", "Outcome Measure", "Readout Value"],
 "data": [
  ["Cc1ncc(Cl)c(C2CCCCN2c2nc(Cl)ncc2F)n1 (stereo not shown) [compound 392]", "pEC50", "> 6.15"],
  ["O=S(=O)(c1ccc(Cl)cc1)N1CCCCC1c1ccc2c(c1)CCO2 (racemic) [compound 66]", "pEC50", "< 5.68"],
  ["CN1CCN(c2nc(Cl)ncc2F)C(c2cc(F)cc(C(F)(F)F)c2)C1 (racemic) [Compound 305]", "pEC50", "5.68 to 6.15"],
  ["COc1ccc(C2C(F)CCCN2c2nc(Cl)ncc2F)cc1Br (stereo not shown) [compound 212]", "pEC50", "< 5.68"],
  ["Fc1cc(C2CCC(OCCN3CCOCC3)CN2c2nc(Cl)ncc2F)cc(C(F)(F)F)c1 (stereo not shown) [compound 304]", "pEC50", "< 5.68"]
]}

**Q:** Given Fc1cc(C2CC(F)(F)CCN2c2nc(Cl)ncc2F)cc(C(F)(F)F)c1 (stereo not shown) [compound 198] , respond with its pEC50.
**A:** 5.68 to 6.15

**Q:** State, in one line, measured pEC50 of COc1ccc(C2CCCCN2c2cccc(C(F)(F)F)n2)cc1Br (stereo not shown) [compound 227]
**A:** < 5.68

* * *

Let's look at some compounds and their measured pEC50.
# Tested On: mu opioid receptor (MOR) (Homo sapiens)
# Protocol Description: Hit Hunter cAMP signaling assay (adenylyl cyclase inhibition), PAM mode with EC20 endomorphin-1
# Format: cell-based
# Condition Notes: read-out: cAMP EC50; adenylyl cyclase inhibition
pEC50: −log10 of the molar value.

{"columns": ["Compound", "Readout Value"],
 "data": [
  ["COc1ccc(C2C(F)CCCN2c2nc(Cl)ncc2F)cc1Br (stereo not drawn)", "< 5.68"],
  ["Fc1cnc(Cl)nc1N1CCCC(F)C1c1cccc(C(F)(F)F)c1 (single isomer, unassigned) [compound 208]", "5.68 to 6.15"]
]}

**Q:** Answer with pEC50 of Fc1cnc(Cl)nc1N1CCCC(F)C1c1cccc(C(F)(F)F)c1 (single isomer, unassigned) [compound 209] measured for mu opioid receptor (MOR) (Homo sapiens).
**A:** 5.68 to 6.15

* * *

Quick reference: EC50 of the listed items.
# Tested On: MOR (Homo sapiens, UniProt P35372)
# Sequence (P35372 whole entry): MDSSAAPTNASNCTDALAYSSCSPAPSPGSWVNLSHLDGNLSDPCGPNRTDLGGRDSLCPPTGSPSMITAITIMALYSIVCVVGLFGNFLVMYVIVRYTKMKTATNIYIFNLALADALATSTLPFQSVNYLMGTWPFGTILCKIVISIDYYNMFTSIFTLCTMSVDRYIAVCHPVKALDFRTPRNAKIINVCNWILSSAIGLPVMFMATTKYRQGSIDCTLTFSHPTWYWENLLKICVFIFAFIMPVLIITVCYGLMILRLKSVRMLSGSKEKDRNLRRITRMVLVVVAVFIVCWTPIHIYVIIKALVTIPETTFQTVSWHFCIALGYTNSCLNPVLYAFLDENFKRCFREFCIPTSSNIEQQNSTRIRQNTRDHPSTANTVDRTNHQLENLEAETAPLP
# Protocol Description: cell-based
# Condition Notes: RC50, cAMP; EC20 morphine agonism of MOR
Report only the number, with the unit nM understood.

Some compounds with recorded EC50:
{"columns": ["Compound", "Readout Units", "EC50"],
 "data": [
  ["Fc1cnc(Cl)nc1N1CCCCC1c1cccc(C(F)(F)F)c1 (single isomer, unassigned) [compound 9]", "nM", 2950],
  ["Fc1cnc(Cl)nc1N1CCCCC1c1cccc(C(F)(F)F)c1 (single isomer, unassigned) [compound 8]", "nM", 2000]
]}

**Q:** Give EC50 for the following compound: COc1ccc(C2CCCCN2S(=O)(=O)c2ccc(Cl)cc2)cc1Br (single isomer, unassigned)
**A:** 2960

* * *

# Tested On: mu opioid receptor (MOR) (Homo sapiens, UniProt P35372)
# Sequence (P35372 whole entry): as above
# Protocol Description: Hit Hunter cAMP signaling assay (adenylyl cyclase inhibition), PAM mode with EC20 endomorphin-1
# Assay type: cell-based
# Condition Notes: adenylyl cyclase inhibition; read-out: cAMP EC50
pEC50: −log10 of the molar value.
Outcome Measure: pEC50

Below, each entry is followed by its recorded pEC50 result.
{"columns": ["Compound", "pEC50"],
 "data": [
  ["COc1ccc(C2CC(C(F)(F)F)CN2S(=O)(=O)c2ccc(Cl)cc2)cc1Br (single isomer, unassigned) [Compound 109]", "> 6.15"],
  ["Fc1cc(C2CC(C(F)(F)F)CN2c2nc(Cl)ncc2F)cc(C(F)(F)F)c1 (stereo not drawn)", "< 5.68"],
  ["COc1ccc(C2C(C(F)(F)F)CCN2S(=O)(=O)c2ccc(Cl)cc2)cc1Br (single isomer, unassigned) [Compound 108]", "< 5.68"],
  ["Fc1cc(C2CCC(F)CN2c2nc(Cl)ncc2F)cc(C(F)(F)F)c1 (stereo not drawn) [compound 312]", "> 6.15"],
  ["CN1CCN(c2nc(Cl)ncc2F)C(c2cc(F)cc(C(F)(F)F)c2)C1 (racemic)", "5.68 to 6.15"],
  ["CC1CCN(S(=O)(=O)c2ccc(Cl)cc2)C1c1ccc(Cl)c(Br)c1 (mixture of isomers)", "> 6.15"],
  ["CN(C)CC(=O)N1CCN(c2nc(Cl)ncc2F)C(c2cc(F)cc(C(F)(F)F)c2)C1 (racemic)", "< 5.68"],
  ["O=S(=O)(Cc1ccccc1)N1C2CCC(C2)C1c1ccc(F)c(Br)c1 (stereo not drawn)", "< 5.68"]
]}

**Q:** Please give measured pEC50 of the following entry: COc1ccc(C2C(C(F)(F)F)CCN2S(=O)(=O)c2ccc(Cl)cc2)cc1Br (mixture of isomers) [Compound 90]
**A:** < 5.68

**Q:** Note down pEC50 recorded for COC(=O)c1cc(C2CCCCN2S(=O)(=O)c2ccc(Cl)cc2)ccn1 (racemic)
**A:** < 5.68

**Q:** Given O=S(=O)(c1ccc(Cl)cc1)N1CCCCC1c1ccc(OC(F)(F)F)c(Br)c1 (stereo not drawn) , respond with its pEC50.
**A:** < 5.68

**Q:** Return pEC50 (reported value) for this compound: N#Cc1cccc(N2CCCCC2c2ccc(F)c(Cl)c2)c1 (stereo not drawn)
**A:** < 5.68

**Q:** Please report the measured pEC50 for CC1CCN(S(=O)(=O)c2ccc(Cl)cc2)C1c1ccc(F)c(F)c1 (mixture of isomers)
**A:** 5.68 to 6.15

**Q:** Determine its reported pEC50: Fc1cnc(Cl)nc1N1CC(F)(F)CC1c1cccc(C(F)(F)F)n1 (stereo not drawn)
**A:** < 5.68

* * *

Known pEC50 of a selection of compounds
# Tested On: mu opioid receptor (MOR) (Homo sapiens, UniProt P35372)
# Protocol Description: Hit Hunter cAMP signaling assay (adenylyl cyclase inhibition), PAM mode with EC20 endomorphin-1
# Assay type: cell-based
# Condition Notes: adenylyl cyclase inhibition; read-out: cAMP EC50
pEC50: −log10 of the molar value.

{"columns": ["Compound", "pEC50"],
 "data": [
  ["O=S(=O)(c1ccc(Cl)cc1)N1CCCCC1c1ccc2c(c1)OCO2 (centres unmarked)", "< 5.68"],
  ["COc1ccc(C2CCCCCN2S(=O)(=O)c2ccc(Cl)cc2)cc1Br (racemic)", "< 5.68"],
  ["O=S(=O)(c1ccc(Cl)cc1)N1CCCCC1c1ccc(F)cn1 (racemic)", "< 5.68"]
]}

// below: pEC50 requested for another compound
**Q:** Assign pEC50 to the following record: CCCC1CCCN(c2nc(Cl)ncc2F)C1c1cccc(C(F)(F)F)c1 (centres unmarked)
**A:** < 5.68

* * *

# Tested On: UniProt P35372
# Protocol Description: PathHunter β-arrestin recruitment assay, PAM mode with EC20 endomorphin-1
# Assay type: cell-based
# Condition Notes: β-arrestin recruitment; read-out: β-arr. EC50
pEC50: −log10 of the molar value.
Outcome Measure: pEC50

{"columns": ["Molecule", "pEC50"],
 "data": [
  ["Oc1cnc2ccc(C3CCCCN3c3nc(Cl)ncc3F)cc2c1 (stereo not drawn)", "> 6.15"],
  ["COc1ccc(C2CCCCN2S(=O)(=O)c2cccnc2Cl)cc1Br (stereo not drawn)", "< 5.68"],
  ["FC(F)(F)c1cccc(CN2CCCCC2c2cccc(C(F)(F)F)n2)c1 (stereo not drawn)", "< 5.68"],
  ["Fc1ccc(C2CCCCN2c2nc(Cl)ncc2F)cc1F (stereo not drawn)", "> 6.15"]
]}

**Q:** Using the record for Fc1cnc(Cl)nc1N1CCCCC1c1nc2ccccc2s1 (stereo not drawn) , state its measured pEC50.
**A:** > 6.15

**Q:** Give the measured pEC50 for FC(F)(F)c1cccc(C2CCCCN2c2ccc(Cl)cc2)n1 (stereo not drawn)
**A:** < 5.68

**Q:** Identify the reported pEC50 for the following entry. Fc1cnc(Cl)nc1N1CCCCC1c1ccc2cncn2c1 (stereo not drawn)
**A:** > 6.15

**Q:** Return value of pEC50 for input COc1cccc(CN2CCCCC2c2cccc(C(F)(F)F)n2)c1 (stereo not drawn) , no commentary.
**A:** < 5.68

**Q:** Return pEC50 (reported value) for this molecule: CC1CCN(S(=O)(=O)c2ccc(Cl)cc2)C1c1cccc(C(F)(F)F)c1 (mixture of isomers)
**A:** 5.68 to 6.15
